- protocol text: Mouse in vivo PK study for half-life extension
- Parameters: species or system CD1 female mice
- run conditions: female, CD1, sc, 0.3 mg/kg in NH4Ac buffer, plasma levels by cell-based reporter gene assay
Positions of bridges follow the written chain, without caps; N, C: chain ends. Chains are numbered I, II in the order given. No end group written: not given here. *: point of attachment. X1 = O=C(O)CCCCCCCCCCCCCCCCC(=O)N[C@@H](CCCCNC(=O)CCOCCOCCNC(=O)CCOCCOCCNC(=O)C*)C(=O)O; X2 = O=C(O)CCCCCCCCCCCCCCCCC(=O)N[C@@H](CCCCn1cc(COCCOCCOCCOCCOCCNC(=O)C*)nn1)C(=O)O; X3 = CCCCCCCCCCCCCCCCCC(=O)N[C@@H](CCCCNC(=O)CCOCCOCCOCCOCCOCCNC(=O)C*)C(=O)O; X4 = CCCCCCCCCCCCCC(=O)N[C@@H](CCCCNC(=O)CCOCCOCCOCCOCCOCCNC(=O)C*)C(=O)O
assay endpoint: half-life

# count of solved cases: 3
I: H-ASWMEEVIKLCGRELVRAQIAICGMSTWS / II: H-QC(X1)YSALANKCCHVGCTKRSLARFC (disulfide I:11-II:11, I:23-II:24, II:10-II:15) [compound 1]: 8 h
I: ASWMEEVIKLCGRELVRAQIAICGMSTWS / II: QC(X4)YSALANKCCHVGCTKRSLARFC (disulfide I:11-II:11, I:23-II:24, II:10-II:15) [compound 7]: 8 h
I: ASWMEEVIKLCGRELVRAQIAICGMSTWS / II: QC(X2)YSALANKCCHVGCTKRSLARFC (disulfide I:11-II:11, I:23-II:24, II:10-II:15) [compound 3]: 6 h

Provide only the value of recorded half-life for I: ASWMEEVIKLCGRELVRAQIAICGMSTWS / II: QLYSALANKCCHC(X1)GCTKRSLARFC (disulfide I:11-II:11, I:23-II:24, II:10-II:15) [compound 2]
8 h

Provide only the value of recorded half-life for I: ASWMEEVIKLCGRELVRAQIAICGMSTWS / II: QC(X3)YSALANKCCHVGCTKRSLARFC (disulfide I:11-II:11, I:23-II:24, II:10-II:15) [compound 9]
3.4 h

Recorded values, source patent US20180207276A1.
